Kindly supply the reported pIC50 values for the records listed here.
molecular target: CDK6/cyclin D1 (Homo sapiens (Human), UniProt Q00534); test: Biochemical kinase inhibitory assay, CDK6/cyclin D1; conditions: in the presence of 10 μM ATP
Sequence (Q00534 whole entry): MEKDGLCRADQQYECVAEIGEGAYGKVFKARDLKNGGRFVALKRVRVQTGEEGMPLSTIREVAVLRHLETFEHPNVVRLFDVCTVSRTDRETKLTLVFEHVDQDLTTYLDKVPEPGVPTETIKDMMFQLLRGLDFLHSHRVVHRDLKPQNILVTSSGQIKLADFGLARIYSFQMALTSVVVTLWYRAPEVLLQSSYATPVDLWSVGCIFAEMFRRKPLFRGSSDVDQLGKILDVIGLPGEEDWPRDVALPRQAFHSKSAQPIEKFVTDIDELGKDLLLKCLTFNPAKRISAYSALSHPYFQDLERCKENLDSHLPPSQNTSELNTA
Sequence (P24385 whole entry partner): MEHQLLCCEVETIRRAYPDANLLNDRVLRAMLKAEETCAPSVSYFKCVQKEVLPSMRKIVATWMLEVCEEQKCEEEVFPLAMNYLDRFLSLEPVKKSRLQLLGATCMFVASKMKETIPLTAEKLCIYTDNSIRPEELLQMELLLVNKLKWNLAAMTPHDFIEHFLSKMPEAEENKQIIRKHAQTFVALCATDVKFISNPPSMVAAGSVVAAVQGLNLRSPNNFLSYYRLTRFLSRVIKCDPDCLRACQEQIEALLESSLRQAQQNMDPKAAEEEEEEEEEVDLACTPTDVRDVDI
pIC50: −log10 of the molar value.

Record excerpt, results attached:
CC(C)n1cnc2ccc3cnc(Nc4ccc(N5CCC(N(C)C)CC5)cn4)nc3c21 = 7.30 to 8.00
CC(C)n1cnc2ccc3cnc(Nc4ccc(N5CC6(CCNCC6)C5)cn4)nc3c21 = 7.30 to 8.00
CC(C)n1cnc2ccc3cnc(Nc4ccc(N5C[C@@H](C)O[C@@H](C)C5)cn4)nc3c21 = 8.00 to 8.70
CC(C)n1cnc2ccc3cnc(Nc4ccc(N5CCC6(CNC6)C5)cn4)nc3c21 = 7.30 to 8.00
CC1CN(c2ccc(Nc3ncc4ccc5ncn(C(C)C)c5c4n3)nc2)CCO1 (centres unmarked) = 8.00 to 8.70

Record pIC50 for all entries; do not skip any.
1. COc1cc(OCCN(C)C)ccc1Nc1ncc2ccc3ncn(C(C)C)c3c2n1
2. Cc1cc(Nc2ncc3ccc4ncn(C(C)C)c4c3n2)ncc1N1CCN(C)CC1
3. CCN1CCN(c2ccc(Nc3ncc4ccc5ncn(C(C)C)c5c4n3)nc2)CC1

Result block:
1. 7.00 to 7.30
2. 8.00 to 8.70
3. > 8.70
